Numbers sourced from BindingDB's records for doi:10.1111/j.1747-0285.2009.00924.x.

- TESTED_ON: Ketol-acid reductoisomerase (NADP(+)) (Escherichia coli (strain K12))
- Sequence (P05793 whole entry): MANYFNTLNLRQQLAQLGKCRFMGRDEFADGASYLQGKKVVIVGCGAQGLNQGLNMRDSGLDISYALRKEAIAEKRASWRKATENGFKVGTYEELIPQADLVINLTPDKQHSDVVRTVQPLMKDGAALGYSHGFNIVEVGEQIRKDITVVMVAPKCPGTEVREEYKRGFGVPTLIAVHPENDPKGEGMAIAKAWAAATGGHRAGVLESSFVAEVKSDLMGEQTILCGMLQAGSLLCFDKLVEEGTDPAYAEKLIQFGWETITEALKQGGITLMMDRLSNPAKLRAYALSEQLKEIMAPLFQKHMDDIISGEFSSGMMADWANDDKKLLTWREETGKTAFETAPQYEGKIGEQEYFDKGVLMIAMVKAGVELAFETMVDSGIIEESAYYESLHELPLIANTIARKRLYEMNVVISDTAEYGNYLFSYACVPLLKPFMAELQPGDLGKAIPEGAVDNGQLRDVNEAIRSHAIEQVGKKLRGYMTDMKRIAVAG
- EXPERIMENT: Enzyme Inhibition Assay
- CONDITION_CONTEXT: pH 8; 30 °C
PROPERTY_LABEL: Ki (µM)
Numeric only. Scale: µM

Entry N#CC1(C(=O)O)CC1 [Cyclopropane, 4] : Ki on Ketol-acid reductoisomerase (NADP(+)) (Escherichia coli (strain K12)) = 95.3

---

- TESTED_ON: Ketol-acid reductoisomerase (NADP(+)) (Escherichia coli (strain K12))
- EXPERIMENT: Enzyme Inhibition Assay
- CONDITION_CONTEXT: pH 8; 30 °C
Reported pKi values are given for each entry in this list.
The meaning of pKi here: minus log10 of the concentration in molar units.

{"columns": ["COMPOUND", "PROPERTY_LABEL", "ENDPOINT_RESULT"],
 "data": [
  ["CC(C)N(O)C(=O)C(=O)O [N-hydroxy-N-isopropyloxamate, IpOHA]", "pKi", 5.56],
  ["O=C(O)C1(C(=O)O)CC1", "pKi", 4.12]
]}

Moving on to the next compound.
NC(=O)C1(C(=O)O)CC1 has a reported pKi of 4.51
